src = patent US10000471B2

Target: p38 MAPKα isoform (MAPK14) (Homo sapiens, UniProt Q16539)
Sequence (Q16539 whole entry, canonical isoform): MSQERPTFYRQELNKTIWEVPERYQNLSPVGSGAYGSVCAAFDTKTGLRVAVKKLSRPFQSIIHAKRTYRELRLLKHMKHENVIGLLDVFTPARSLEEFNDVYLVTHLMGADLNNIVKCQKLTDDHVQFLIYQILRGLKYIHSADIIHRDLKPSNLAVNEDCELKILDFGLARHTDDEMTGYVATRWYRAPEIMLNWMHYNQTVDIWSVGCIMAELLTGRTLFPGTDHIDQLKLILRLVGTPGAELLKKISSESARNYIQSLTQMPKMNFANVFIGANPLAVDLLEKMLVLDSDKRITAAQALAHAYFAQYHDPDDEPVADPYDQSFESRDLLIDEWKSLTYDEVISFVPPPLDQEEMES
Experiment: Enzyme inhibition assay (FRET, Z-LYTE), p38 MAPKα via MAPKAP-K2 activation
Conditions: read-out: Enzyme Inhibition IC50 p38α
Protocol: The enzyme inhibitory activities of compounds disclosed herein were determined by fluorescence resonance energy transfer (FRET) using synthetic peptides labelled with both donor and acceptor fluorophores (Z-LYTE, Invitrogen Ltd., Paisley, UK). […] Development reagent (protease) was added for 1 hr prior to detection in a fluorescence microplate reader (Varioskan® Flash, ThermoFisher Scientific). […]
Measured parameter: pIC50
pIC50 here: minus log base 10 of the concentration, concentration in moles per litre.

In: Look at this compound and give its reported pIC50. CNC(=O)Nc1cc(Oc2ccc(NC(=O)Nc3cc(C(C)(C)C)nn3-c3ccc(C)cc3)c3ncccc23)ccn1
Out: 7.28

In: Look at this compound and give its reported pIC50. CNC(=O)Nc1cc(COc2ccc(NC(=O)Nc3cc(C(C)(C)C)nn3-c3ccc(C)cc3)c(Cl)c2Cl)ccn1
Out: 7.36

In: Look at this compound and give its reported pIC50. COc1ccc(-n2nc(C(C)(C)C)cc2NC(=O)Nc2ccc(Oc3ccnc(NC(=O)N4CCC(O)C4)c3)c(Cl)c2Cl)cc1 (stereo not shown)
Out: 7.89

In: Look at this compound and give its reported pIC50. COCC(=O)Nc1cc(Oc2ccc(NC(=O)Nc3cc(C(C)(C)C)nn3-c3ccc(C)cc3)c(Cl)c2C#N)ccn1
Out: 8.35

In: Look at this compound and give its reported pIC50. Cc1ccc(-n2nc(C(C)(C)C)cc2NC(=O)Nc2ccc(OCc3ccnc(NC(=O)N4CCCC4)c3)c(Cl)c2Cl)cc1
Out: 7.73

In: Look at this compound and give its reported pIC50. CN(C)[C@@H]1CCN(C(=O)Nc2cc(Oc3ccc(NC(=O)Nc4cc(C(C)(C)C)nn4-c4ccc(O)cc4)c(Cl)c3Cl)ccn2)C1
Out: 7.80

In: Look at this compound and give its reported pIC50. CN(C)CCNC(=O)Nc1cc(Oc2ccc(NC(=O)Nc3cc(C(C)(C)C)nn3-c3ccc(CO)cc3)c(Cl)c2Cl)ncn1
Out: 8.25

In: Look at this compound and give its reported pIC50. COc1cc(-n2nc(C(C)(C)C)cc2NC(=O)Nc2ccc(Oc3ccnc(NC(=O)N4CC[C@H](N(C)C)C4)c3)c(Cl)c2Cl)ccc1CO
Out: 7.86

In: Look at this compound and give its reported pIC50. COc1ccc(-n2nc(C(C)(C)C)cc2NC(=O)Nc2ccc(Oc3ccnc(NC(=O)N4CCCC4)c3)c(C#N)c2Cl)cc1
Out: 7.49

In: Look at this compound and give its reported pIC50. COCC(=O)Nc1cc(Oc2ccc(NC(=O)Nc3cc(C(C)(C)C)nn3-c3ccc(C)cc3)c(F)c2F)ccn1
Out: 6.87

In: Look at this compound and give its reported pIC50. CNC(=O)Nc1cc(Oc2ccc(NC(=O)Nc3cc(C(C)(C)C)nn3-c3ccc(CO)c(Cl)c3)c(Cl)c2Cl)ccn1
Out: 7.06

In: Look at this compound and give its reported pIC50. CNC(=O)Nc1cc(Oc2ccc(NC(=O)Nc3cc(C(C)(C)C)nn3-c3ccc(OC)cc3)c(Cl)c2Cl)ccn1
Out: 7.72

In: Look at this compound and give its reported pIC50. CC(C)(C)c1cc(NC(=O)Nc2ccc(Oc3ccnc(NC(=O)CN4CCOCC4)c3)c(Cl)c2Cl)n(-c2ccc(CO)cc2)n1
Out: 8.20
